Target: EZH2 within the PRC2 complex (Homo sapiens, UniProt Q15910)
Construct: FLAG; made in house; host or cells: Sf9 cells
Sequence (Q15910 whole entry): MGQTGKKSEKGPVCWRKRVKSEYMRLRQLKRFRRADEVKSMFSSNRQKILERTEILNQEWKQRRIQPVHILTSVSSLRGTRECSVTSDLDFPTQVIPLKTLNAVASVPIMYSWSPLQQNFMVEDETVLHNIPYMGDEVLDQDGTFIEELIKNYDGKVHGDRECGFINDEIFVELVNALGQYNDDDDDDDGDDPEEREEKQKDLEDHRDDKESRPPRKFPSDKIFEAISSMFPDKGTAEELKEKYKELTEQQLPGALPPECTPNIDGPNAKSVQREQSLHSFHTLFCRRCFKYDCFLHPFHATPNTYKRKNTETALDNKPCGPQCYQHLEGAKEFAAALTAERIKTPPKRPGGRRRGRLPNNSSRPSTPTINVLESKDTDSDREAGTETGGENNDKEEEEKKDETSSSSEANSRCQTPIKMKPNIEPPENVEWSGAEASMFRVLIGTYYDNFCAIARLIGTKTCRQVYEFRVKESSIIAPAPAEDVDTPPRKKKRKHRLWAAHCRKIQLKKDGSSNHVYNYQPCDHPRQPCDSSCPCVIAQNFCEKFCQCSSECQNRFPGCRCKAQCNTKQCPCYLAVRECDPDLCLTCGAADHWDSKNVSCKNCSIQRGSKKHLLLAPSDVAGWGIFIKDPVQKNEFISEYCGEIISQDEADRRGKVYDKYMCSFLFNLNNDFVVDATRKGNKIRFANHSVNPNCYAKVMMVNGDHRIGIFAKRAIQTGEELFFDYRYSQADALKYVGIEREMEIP
Sequence (O75530 whole entry partner): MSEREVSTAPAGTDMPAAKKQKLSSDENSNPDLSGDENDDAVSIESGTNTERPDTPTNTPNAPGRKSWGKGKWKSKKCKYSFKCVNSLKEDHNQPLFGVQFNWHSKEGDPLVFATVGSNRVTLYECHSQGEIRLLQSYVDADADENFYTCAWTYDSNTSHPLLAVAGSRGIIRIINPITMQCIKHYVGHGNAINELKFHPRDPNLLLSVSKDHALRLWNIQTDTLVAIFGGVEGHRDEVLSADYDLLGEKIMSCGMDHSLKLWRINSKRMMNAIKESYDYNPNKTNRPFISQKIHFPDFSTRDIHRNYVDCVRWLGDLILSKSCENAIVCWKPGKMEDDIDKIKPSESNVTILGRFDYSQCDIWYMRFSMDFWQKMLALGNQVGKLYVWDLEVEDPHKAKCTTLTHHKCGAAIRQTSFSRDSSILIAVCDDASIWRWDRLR
Sequence (Q15022 whole entry partner): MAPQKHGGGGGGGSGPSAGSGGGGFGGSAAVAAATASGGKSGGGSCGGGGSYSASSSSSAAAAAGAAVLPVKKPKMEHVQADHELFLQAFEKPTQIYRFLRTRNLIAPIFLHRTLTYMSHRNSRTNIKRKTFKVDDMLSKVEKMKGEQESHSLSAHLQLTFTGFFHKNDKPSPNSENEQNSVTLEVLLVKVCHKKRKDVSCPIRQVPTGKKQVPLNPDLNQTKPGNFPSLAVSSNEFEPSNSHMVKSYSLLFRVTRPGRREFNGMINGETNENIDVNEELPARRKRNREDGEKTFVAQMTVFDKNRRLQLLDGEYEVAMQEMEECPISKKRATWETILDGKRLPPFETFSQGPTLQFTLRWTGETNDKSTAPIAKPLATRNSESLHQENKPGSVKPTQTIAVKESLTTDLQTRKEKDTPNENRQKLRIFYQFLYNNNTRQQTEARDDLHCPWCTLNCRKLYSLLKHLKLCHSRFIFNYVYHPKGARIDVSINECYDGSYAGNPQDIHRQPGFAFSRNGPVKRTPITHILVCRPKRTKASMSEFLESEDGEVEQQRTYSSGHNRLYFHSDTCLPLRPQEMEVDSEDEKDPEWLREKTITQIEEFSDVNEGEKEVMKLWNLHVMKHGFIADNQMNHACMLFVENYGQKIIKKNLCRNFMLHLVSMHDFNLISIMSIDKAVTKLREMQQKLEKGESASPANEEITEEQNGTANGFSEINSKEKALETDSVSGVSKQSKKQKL
Sequence (Q09028 whole entry partner): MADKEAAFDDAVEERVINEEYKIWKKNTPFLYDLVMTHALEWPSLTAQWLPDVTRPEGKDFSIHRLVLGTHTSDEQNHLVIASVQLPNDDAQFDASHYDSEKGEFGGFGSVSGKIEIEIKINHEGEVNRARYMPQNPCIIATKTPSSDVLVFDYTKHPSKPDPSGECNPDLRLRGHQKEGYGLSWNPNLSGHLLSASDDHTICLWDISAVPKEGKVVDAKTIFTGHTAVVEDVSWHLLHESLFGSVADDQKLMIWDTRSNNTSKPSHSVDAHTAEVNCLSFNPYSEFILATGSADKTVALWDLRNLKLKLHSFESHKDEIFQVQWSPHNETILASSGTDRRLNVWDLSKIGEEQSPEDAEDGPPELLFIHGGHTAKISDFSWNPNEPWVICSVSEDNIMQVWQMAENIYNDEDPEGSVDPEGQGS
Sequence (Q6ZN18 whole entry partner): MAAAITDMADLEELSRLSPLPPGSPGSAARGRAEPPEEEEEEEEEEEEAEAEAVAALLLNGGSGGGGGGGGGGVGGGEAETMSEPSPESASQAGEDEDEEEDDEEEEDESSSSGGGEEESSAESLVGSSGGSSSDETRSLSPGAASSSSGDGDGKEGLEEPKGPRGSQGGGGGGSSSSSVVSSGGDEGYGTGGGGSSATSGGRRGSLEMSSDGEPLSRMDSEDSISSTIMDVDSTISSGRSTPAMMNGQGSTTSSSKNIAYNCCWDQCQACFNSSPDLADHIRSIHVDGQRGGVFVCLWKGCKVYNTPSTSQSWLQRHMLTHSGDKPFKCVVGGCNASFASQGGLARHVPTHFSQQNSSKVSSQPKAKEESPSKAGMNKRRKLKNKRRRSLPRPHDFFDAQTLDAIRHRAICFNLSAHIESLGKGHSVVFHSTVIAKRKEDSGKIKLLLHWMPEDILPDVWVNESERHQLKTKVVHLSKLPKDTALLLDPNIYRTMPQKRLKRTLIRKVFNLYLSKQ
Assay: Assay Protocol 1: EZH2 methyltransferase scintillation proximity assay, mononucleosome substrate
Assay type: biochemical
Settings: Assay Protocol 1; SPA, 3H-SAM, Histone H3 of mononucleosome purified from HeLa cells; 5-member PRC2 complex; read-out: EZH2 IC50
pIC50: −log10 of the molar value. Where a name gives a salt, the structure may show the parent alone.
Parameter threshold = 7. Response is Satisfied when pIC50 meets or exceeds it, else Not satisfied.

Input: In plain terms: is recorded pIC50 at least 7 for CCN(c1cccc2c1C/C=C/CCc1cc(C)[nH]c(=O)c1CN(CCO)C2=O)C1CCOCC1 [Example 29] ?
Output: Not satisfied

Input: In plain terms: is recorded pIC50 at least 7 for CCN(c1cccc2c1C/C=C/CCCc1cc(C)[nH]c(=O)c1CNC2=O)C1CCNCC1 [Example 40] ?
Output: Satisfied

Input: In plain terms: is recorded pIC50 at least 7 for CCN(c1cc(Cl)cc2c1C/C=C/CCc1cc(C)[nH]c(=O)c1CNC2=O)C1CCOCC1 [Example 17] ?
Output: Satisfied

Input: In plain terms: is recorded pIC50 at least 7 for CCN(c1cccc2c1C/C=C\CCc1cc(C)[nH]c(=O)c1CNC2=O)C1CCNCC1 [Example 52] ?
Output: Not satisfied

Input: In plain terms: is recorded pIC50 at least 7 for Cc1cc2c(c(=O)[nH]1)CNC(=O)c1cc(Cl)cc(O[C@H]3CC[C@H](N(C)C)CC3)c1C/C=C\CC2 [Example 5] ?
Output: Not satisfied

Input: In plain terms: is recorded pIC50 at least 7 for CCN(c1cccc2c1C/C=C/CCc1cc(C)[nH]c(=O)c1CNC2=O)[C@H]1CC[C@H](N)CC1 [Example 36] ?
Output: Satisfied

Input: In plain terms: is recorded pIC50 at least 7 for CCN(c1cccc2c1C/C=C/CCc1cc(C)[nH]c(=O)c1CNC2=O)C1CCN(CCO)CC1 [Example 35] ?
Output: Satisfied

Input: In plain terms: is recorded pIC50 at least 7 for Cc1cc2c(c(=O)[nH]1)CNC(=O)c1cc(Cl)cc(O[C@H]3CC[C@H](N(C)C)CC3)c1C/C=C/CC2 [Example 2] ?
Output: Satisfied

Input: In plain terms: is recorded pIC50 at least 7 for CCN(c1cccc2c1C/C=C/CCc1cc(C)[nH]c(=O)c1CNC2=O)C1CCC(F)(F)CC1 [Example 30] ?
Output: Satisfied

Input: In plain terms: is recorded pIC50 at least 7 for CCN(c1cccc2c1C/C=C/CCc1cc(C)[nH]c(=O)c1CNC2=O)C1CCN(CC2CC2)CC1 [Example 41] ?
Output: Satisfied

Input: In plain terms: is recorded pIC50 at least 7 for COc1cc(Cl)cc2c1C/C=C/CCc1cc(C)[nH]c(=O)c1CNC2=O [Example 15] ?
Output: Not satisfied

Input: In plain terms: is recorded pIC50 at least 7 for CCN(c1cccc2c1C/C=C/CN(C)Cc1cc(C)[nH]c(=O)c1CNC2=O)C1CCOCC1 [Example 10] ?
Output: Not satisfied

Input: In plain terms: is recorded pIC50 at least 7 for CCN(c1cccc2c1C/C=C/CCCCc1cc(C)[nH]c(=O)c1CNC2=O)C1CCOCC1 [Example 14, hydrochloride] ?
Output: Satisfied
